Read-out: Pyruvate Dehydrogenase Kinase 4 (PDK4), PDK4 (gene 5166)
Experiment: LTEA_HepaRG_PDK4: Life Technologies and Expression Analysis (LTEA) Assay for Pyruvate Dehydrogenase Kinase 4 (PDK4) using HepaRG (AID 2283525)
Conditions: mRNA level, 48 h; actives raise or lower the signal
Method: LTEA_HepaRG is a cell based, multiplexed-readout assay that uses HepaRG, a human liver cell line, with measurements taken at 48 hours after chemical dosing on a 96-well plate.LTEA_HepaRG_PDK4 is one of 102 assay component(s) measured in the LTEA HepaRG cell culture assay. It is a marker of Diseases associated with PDK4 including Platelet Glycoprotein Iv Deficiency and Diabetes Mellitus, Noninsulin-Dependent.Data from the assay component LTEA_HepaRG_PDK4 was analyzed into 1 endpoint. […]
Active and inactive are the calls of the source. Rule for the calls: active = hit-call score of the fitted dose curve at least 0.9, where 1 is the maximum; inactive = score below 0.9.
readout name: AC50

CCC[CH2][Sn]([Cl])([CH2]CCC)[CH2]CCC inactive
O=Cc1ccco1 inactive
Clc1ccccc1Cl inactive
Brc1ccc(Oc2ccccc2)cc1 inactive
Cc1ccc(N)c(N)c1 inactive

Task item: Give the reported AC50 for this compound. `Cc1ccc(N=C=O)cc1N=C=O`
Reply: 19.6 µM (active)

Task item: Give the value of AC50 reported for the following: `CCCCCCCCn1sccc1=O`
Reply: 34.4 µM (active)

###

Read-out: CYP2C9 (gene 1559)
Test: LTEA_HepaRG_CYP2C9: Life Technologies and Expression Analysis (LTEA) Assay for CYP2C9 using HepaRG (AID 2283484)
Conditions: mRNA level, 48 h; actives raise or lower the signal
Method: LTEA_HepaRG is a cell based, multiplexed-readout assay that uses HepaRG, a human liver cell line, with measurements taken at 48 hours after chemical dosing on a 96-well plate.LTEA_HepaRG_CYP2C9 is one of 102 assay component(s) measured in the LTEA HepaRG cell culture assay. It is a marker of NR mediated metabolism.Data from the assay component LTEA_HepaRG_CYP2C9 was analyzed into 1 endpoint. […]
Active and inactive are the calls of the source. How the source made its calls: active means hit-call score of the fitted dose curve at least 0.9, where 1 is the maximum; inactive means score below 0.9.
Pick from active, inactive when you respond.

Example cases with answers are listed next.
Cc1ccc(N)c(N)c1 inactive
CNC(=O)Oc1cccc2c1OC(C)(C)C2 inactive
CC(C)(O)c1cnn2c(-c3ccc(F)c(-c4c(F)cccc4C#N)c3)cnc2n1 active
c1ccc2c(c1)-c1cccc3cccc-2c13 inactive
ClC1=C(Cl)[C@]2(Cl)[C@H]3[C@H]([C@@H]4C=C[C@H]3C4)[C@@]1(Cl)C2(Cl)Cl inactive

Task item: Recorded call for `CCCCOC(=O)c1ccccc1C(=O)OCc1ccccc1` ?
Reply: inactive

Task item: Any idea what this test logged for `CC(C)COC(=O)c1ccccc1C(=O)OCC(C)C` ?
Reply: inactive

Task item: Can you look up the reported call for `[As]#[In]` for me?
Reply: inactive

###

Read-out: Human Leukocyte Antigen - DR isotype (HLADR), HLA-DRA (gene 3122)
Assay: BSK_3C_HLADR: BioMAP Diversity Plus: 3C Assay for Human Leukocyte Antigen - DR isotype (HLADR) Biomarker Activity (AID 2283019)
Details: primary human endothelial cells (HUVEC); actives raise or lower the signal
The source made the active and inactive calls. Rule for the calls: active = hit-call score of the fitted dose curve at least 0.9, where 1 is the maximum; inactive = score below 0.9.
A correct response names exactly one class from active, inactive

compound	assigned class
Nc1ccc(Cl)cc1N	active
Cc1ccc(N)cc1	inactive

Pending compound:
Task item: Query: recorded result category for `Oc1ccccc1Cl` in this test
Reply: inactive

###

Assay: BSK_3C_uPAR: BioMAP Diversity Plus: 3C Assay for Urokinase-type plasminogen activator receptor (uPAR) Biomarker Activity (AID 2282998)
Details: BioMAP 3C HUVEC, uPAR biomarker ELISA; actives raise or lower the signal
Description: BSK_3C is a cell-based, multiplexed-readout assay that uses umbilical vein endothelium, a human vascular primary cell, with measurements taken at 24 hours after chemical dosing in a 96-well plate.BSK_3CAR is an assay component measured in the BSK_3C assay. It measures uPAR antibody related to regulation of gene expression using ELISA technology.Data from the assay component BSK_3CAR was analyzed into 1 assay endpoint. […]
Active and inactive are the calls of the source. Rule for the calls: active = hit-call score of the fitted dose curve at least 0.9, where 1 is the maximum; inactive = score below 0.9.
The categories you may choose from are true (1) = active, false (0) = inactive

Recorded results for 5 molecules are shown here.
OCCOCCO false (0)
Nc1ccc(N=Nc2ccccc2)cc1 false (0)
CCOC(=O)[C@]1(c2ccccc2)Oc2ccccc2[C@@H]1N true (1)
Cc1cccc(N)c1N false (0)
ClCCOCCCl false (0)

Task item: Hi team, can someone confirm the assay call for `O=[N+]([O-])C(Br)(CO)CO` ?
Reply: true (1)
